Reference source: PubChem BioAssay (Tox21)

- ASSAY PROCEDURE: Human pregnane X receptor (PXR) small molecule agonists, qHTS cell viability counter screen (AID 1346977); further: nearly all actives have a fitted effect of over 50% in size
- CONDITION LABEL: PXR-Luc HepG2 viability, CellTiter-Fluor, 24 h; series mostly up to 92.4 µM
Inconclusive results are not listed. Activity calls are given as the source filed them. The call rests on the fitted dose curve; in most records, active means well fitted cell-killing curve with a large enough effect in the repeat runs; inconclusive means weak or mixed curves, or effect the other way; inactive means flat fitted curve, though single readings scatter.
Outcome (select one): active, inactive

For O=C1CN=C(c2ccccc2)c2cc([N+](=O)[O-])ccc2N1 , what call appears in the results of this test? inactive

For CCC1(c2ccccc2)C(=O)N=C(O)NC1=O (stereo not drawn) , what call appears in the results of this test? inactive

Lab log entry: O=C(Nc1ccccc1)N(Cc1ccc(Cl)cc1)C1CCCC1 — outcome as called in the assay? active

# outcome recorded in this test, key = CC(C=O)Cc1ccc2c(c1)OCO2 (stereo not drawn) inactive

Name the outcome recorded for CC(C1CC1)C(O)(Cn1cncn1)c1ccc(Cl)cc1 (stereo not drawn) in the assay. inactive

What is the recorded call for this compound in the test? CC(=O)CCc1ccc2c(c1)OCO2 inactive

Tell me the recorded outcome of this test for Nc1ccccc1Cl . inactive

Which outcome was assigned to O=NN1CCCCC1 in this test? inactive

Recorded test call requested for CC(=O)CC(c1ccc(Cl)cc1)c1c(O)c2ccccc2oc1=O (stereo not drawn) inactive

For COc1cc(OC)nc(NC(=O)NS(=O)(=O)c2ncccc2C(=O)N(C)C)n1 , which call appears in the assay record? inactive

# fetch the recorded call for C[C@H]1CCC[C@H](O)CCCCCc2cc(O)cc(O)c2C(=O)O1 here active

Please share the test call associated with CC1CN1P(=O)(N1CC1C)N1CC1C (stereo not drawn) . inactive

Hey, what did the test say about CCCSP(=S)(OCC)Oc1ccc(Cl)cc1Cl (stereo not drawn) ? inactive
